Where do these numbers come from? They come from PubChem BioAssay (NCI).

Tested on: SW-620 colon
assayNotes: NCI tumour cell line growth inhibition, 48 h
// reported TGI for each item listed

Sample answers from the record:
{"structureNotation": "CC[C@H](C)N(CCN)C(=O)c1cc2ccccc2c(-c2ccccc2Cl)n1", "TGI": "30 µM"}
{"structureNotation": "COc1ccc2[nH]c3c(c2c1)CCN(C)CC3", "TGI": "> 100 µM"}

We next turn to a different compound, shown below.
Return TGI measured with SW-620 colon given this compound: O=C1NCc2ccc3c(-c4cccc(Cl)c4)c[nH]c3c21
> 50 µM

###

Tested on: COLO 205 colon
assayNotes: NCI tumour cell line growth inhibition, 48 h
observable: TGI

Sample answers from the record:
{"molecule": "COc1cc2c(cc1OC)C(=O)/C(=C/c1cccc(OCC(=O)c3ccccc3)c1)C2", "TGI": "> 100 µM"}
{"molecule": "Cc1cn(C2CC(n3cc(Cn4cc(F)c(=O)[nH]c4=O)nn3)C(CO)O2)c(=O)[nH]c1=O (stereo not drawn)", "TGI": "> 100 µM"}
{"molecule": "C=C1C(=O)O[C@H]2[C@H]1CC/C(Cn1cc(CNC(=O)Cc3cn(C(=O)c4ccc(Cl)cc4)c4ccc(OC)cc34)nn1)=C\\CC[C@@]1(C)O[C@@H]21", "TGI": "4.22 µM"}
{"molecule": "O=C(NCCN(CCNC(=O)c1cccc(=O)n1O)CCN(CCNC(=O)c1cccc(=O)n1O)CCNC(=O)c1cccc(=O)n1O)c1cccc(=O)n1O", "TGI": "> 100 µM"}

We next turn to a different molecule, shown below.
What value of TGI has been recorded for this entry: Cn1c(=O)c2c(nc(NCCCCl)n2CC(=O)O)n(C)c1=O
> 100 µM
